B1: tRNA (parent)
chain: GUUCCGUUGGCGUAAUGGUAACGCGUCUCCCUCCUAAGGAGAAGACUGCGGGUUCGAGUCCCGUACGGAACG

- Variants of: B1
- ASSAY NAME: yeast fitness, log relative to wild type (ln ratio); higher = fitter; tRNA-Arg(CCU), competitive growth, 37 C, 1 M NaCl
Consider the following variants and their measured yeast fitness (ln) readings.
The answer should be a number; do not append a unit.

- U2C C27U C46U C66A C71U: -0.0945
- U2C G6A A43C C46U A69G A70U: -0.0634
- U2G C46U C66U A69G A70U: -0.0704
- U2G G6A C27U A43C C66A: -0.237
- U2C G6U A43C C46U C66U A70G C71U: -0.352

I have this variant here, U2G A43C C46U C66U A69G A70U C71U , and I need its recorded yeast fitness (ln).
-0.413

Entry source: the RNAGym collection of RNA variant scans (doi:10.1038/s41586-018-0170-7)
